Provide the reported growth of each item.
# Test system: MDA-MB-468 breast
# Procedure Summary: NCI-60 one-dose screen, 48 h (100 = growth as untreated, 0 = no growth, -100 = all killed)
# Test Conditions: 10 µM unless noted
This is part of a sample that, as a whole, favours compounds with a hit. Of some 83,000 tested, about 20% had one in any assay.
All answers are understood in %, so give the number only.

**Q:** GET /values?readout=growth&item= COc1ccc(-c2no[n+]([O-])c2Nc2ccccc2Br)cc1
**A:** 93.3

**Q:** What value of growth has been reported for the following molecule? CC(=O)Nc1ccc(NC(C)=O)c2c1C(=O)c1ccccc1C2=O
**A:** 107

**Q:** What growth value was documented for this molecule, C=C(C)[C@@H]1CC[C@]2(C)[C@H](C=CC3=C4C[C@@](C)(CO)CC[C@]4(C)CC[C@]32C)[C@@]1(C)CCCN ?
**A:** -62.1

**Q:** Item under review: COC(=O)C[Se]C(=O)Cc1c(C)n(C(=O)c2ccc(Cl)cc2)c2ccc(OC)cc12 . Reported growth?
**A:** -18.4

**Q:** Give its growth value. Item: CCOC(=O)Nc1ccc2c3c(cccc13)-c1ccccc1-2
**A:** -11.5

**Q:** // query growth value for entry Cc1ccc2c(n1)C(=O)C(Cl)=C(Nc1ccccc1C(C)C)C2=O
**A:** 34.9

**Q:** Please give the measured growth for this molecule: CN(C)C(=O)c1ccccc1-n1cnc2ccccc2c1=O
**A:** 100

**Q:** Return reported growth; argument: CCCCCCCCCCSc1ncnc2nc[nH]c12
**A:** 8.95

**Q:** Record request: growth value, item CN(C)c1ccc(NC(=O)c2ccc(/C=C/C(=O)c3ncc[nH]3)cc2)cc1
**A:** 45.6

**Q:** Given the molecule CCNc1cc(S(=O)(=O)O)ccc1C , what is its reported growth?
**A:** 97.2

**Q:** Any idea what growth was measured for CC1=NN(C(=O)c2nn(-c3ccc(Cl)cc3)cc2O)C(=O)C1 ?
**A:** 54.6

**Q:** Reported growth for O=C1CSC(c2c(Cl)cccc2Cl)N1c1nc(Cl)cc(=O)[nH]1 (stereo unspecified) : what is it?
**A:** 117

**Q:** State the recorded growth for this entry: CCC[C@H](N[C@@H](C)C(=O)N1[C@H](C(=O)O)C[C@@H]2CCCC[C@@H]21)C(=O)OCC
**A:** 101

**Q:** Can you look up the measured growth of CC(C)C(=O)Cc1cnccn1 for me?
**A:** 119

**Q:** Look up growth for this molecule: c1ccc([P+](CCCc2n(Cc3ccc4ccccc4c3)c3ccccc3[n+]2Cc2ccc3ccccc3c2)(c2ccccc2)c2ccccc2)cc1
**A:** 34.5

**Q:** Can you share its growth? I mean this molecule: N#C/C(=C\c1ccc(Br)cc1)n1nnc2cc(F)c(F)cc21
**A:** -6.6

**Q:** GET /values?readout=growth&item= COc1c(O)cc2oc3cc(O)c(CC=C(C)C)c(O)c3c(=O)c2c1C/C=C(\C)CCC=C(C)C
**A:** 82.1

**Q:** Data request, read-out growth, for CC(=O)Oc1cc2cnc3c4cc(OC(C)=O)c(OC(C)=O)cc4ccc3c2cc1OC(C)=O
**A:** -7.77

**Q:** Would you mind telling me what growth value was observed for Cc1ccc(NC(=O)c2cc(-c3nc4ccccc4s3)c(=O)n(NS(=O)(=O)c3ccc(Cl)cc3)c2N)cc1 ?
**A:** 109

**Q:** Return reported growth; argument: O=C(CCN1C(=O)/C(=C/c2ccccc2)SC1=S)N1CCOCC1
**A:** 51.9

**Q:** Bench note: what growth did COc1cccc(/C=C2\C=C(c3ccccc3)N(Cc3ccccc3)C2=O)c1 show?
**A:** 45.3

====

# Tested on: MDA-MB-468 breast
# Procedure Summary: NCI-60 one-dose screen, 48 h
# Test Conditions: 10 µM unless noted
Compounds without any hit were thinned out: in the full panel of roughly 83,000, 20% have a hit. The source made the active and inactive calls. How the source made its calls: active means growth percent below 10; inactive means the rest.
Outcomes you can answer with include only these: active, inactive

**Q:** Fill in: this test's call for O=C(O)c1ccc(P(=O)(O)O)c([N+](=O)[O-])c1 is ___
**A:** inactive

**Q:** Record request — test call for COc1ccc(/C=C/C(=O)c2ccc(NC(=O)CSc3nnc(-c4ccc(OC)c(OC)c4)n3-c3ccccc3)cc2)cc1
**A:** inactive

**Q:** Test call, this compound: CC(=O)OCC1OC(OC2=C(CC=C(Cl)Cl)C(=O)c3ccccc3C2=O)C(OC(C)=O)C(OC(C)=O)C1OC(C)=O (centres undefined)
**A:** active

**Q:** Per the records of this test, what outcome belongs to CC(=O)c1c(C)[nH]c(-c2nc3ccc(N4CCN(C)CC4)cc3[nH]2)c1-c1ccc2c(c1)OCCO2 ?
**A:** inactive

====

# Tested on: MDA-MB-468 breast
# Procedure Summary: NCI-60 one-dose screen, 48 h (100 = growth as untreated, 0 = no growth, -100 = all killed)
# Test Conditions: 10 µM unless noted
This is part of a sample that, as a whole, favours compounds with a hit. Of some 83,000 tested, about 20% had one in any assay.
Recorded Endpoint: growth (%)
Report the figure in % without appending any unit label.

**Q:** Endpoint output: growth of Cc1ccc2nc(-c3ccc(C(=O)N/N=C/c4ccc([N+](=O)[O-])cc4)cc3)[nH]c2c1 . Value?
**A:** 113

**Q:** Suppose we examine the compound O=C(NCc1ccccc1)C(Cl)Cl ; what growth value has been reported?
**A:** 85.2

**Q:** What value of growth has been recorded for this entry: CC(C)(C)c1ccc(C(=O)Nc2sc3c(c2C#N)CCC(=O)C3)cc1
**A:** 2.73

**Q:** # query: growth of entry CC(C)c1nc2ccccc2n1CC(=O)N/N=C/c1cccc(O)c1
**A:** 98.4

**Q:** So what does the record say about growth for CCOC(=O)c1c(C)nc2ccccc2c1/C=C/c1cccs1 ?
**A:** -2.39

**Q:** Please give the measured growth for this compound: COc1ccccc1/C=C/C1=C(C)CCC(c2ccccc2OC)C1C (stereo unspecified)
**A:** 29.7

**Q:** Entry under review: COc1ccc(OC)c2c1CCC1(C2)NC(=O)NC1=O (stereo unspecified) . Reported growth?
**A:** 106

**Q:** Reported growth for Nc1c(C(=O)Nc2cccc(C(F)(F)F)c2)sc2nc3c(cc12)C(O)CCC3 (stereo unspecified) : what is it?
**A:** 22.4

**Q:** Find the recorded growth belonging to C[C@@H](Nc1ncnc2ccc(-c3cnc(Cl)c(NS(C)(=O)=O)c3)cc12)c1ccccc1 and report it.
**A:** 30.8

**Q:** Entry under review: O=C(/C=C/c1ccccc1)C(Br)C(Br)c1ccccc1 (stereo unspecified) . Reported growth?
**A:** -38.1

**Q:** Data request, read-out growth, for Oc1ccccc1-c1nnco1
**A:** 88.7

**Q:** Suppose we examine the compound Cc1ccc(C(C)C)c(OCc2ccc(C(=O)N/N=C/c3cccc(O)c3O)cc2)c1 ; what growth value has been reported?
**A:** 75.7

**Q:** Fill in: growth of COc1ccccc1-n1c(-c2csc(NC(C)=O)n2)n[nH]c1=S is ___
**A:** 100

**Q:** Given the compound CC(=O)Nc1cccc(-c2ccc3c(c2)NC(=O)/C3=C\c2ccc[nH]2)c1 , what is its reported growth?
**A:** 21.1

**Q:** # get_value(readout='growth', item= CC[C@H]1CN2CCc3cc(OC)c(OC)cc3C2C[C@@H]1CC1NCCc2cc(OC)c(OC)cc21 (stereo partly specified) )
**A:** -59.5

**Q:** I'd like to know its growth. The compound in question is COc1cc2c3c(c1O)-c1ccccc1[C@@H]1OC(=O)N(CC2)[C@H]31
**A:** 90

**Q:** So what's the measured growth for this one? Cc1ccc(C)n1-c1ccsc1C(=O)NNC(=O)CCl
**A:** 88

**Q:** Could you share which growth value was measured for COC(=O)[C@]12CCC(C)(C)C[C@H]1[C@H]1/C(=N/OCCc3nn[nH]n3)C[C@@H]3[C@@]4(C)CC[C@H](OC(C)=O)C(C)(C)[C@@H]4CC[C@@]3(C)[C@]1(C)CC2 ?
**A:** 17.3

**Q:** Any idea what its growth is? The compound is CCOc1cc(/C=N\NC(=O)N/N=C/c2ccc(O)c(OCC)c2)ccc1O
**A:** 3.75

**Q:** Using the record for Cc1cccc(C)c1NC(=O)CSC(=S)N1CCN(CCOCCO)CC1 , report its growth.
**A:** 127

**Q:** Which growth reading was recorded for the compound Cc1ccc(-c2cnc3sc4ccc(Cl)cc4n23)cc1 ?
**A:** 103
